# TARGET_OR_SYSTEM: UniProt:P22303
# Sequence (P22303 whole entry): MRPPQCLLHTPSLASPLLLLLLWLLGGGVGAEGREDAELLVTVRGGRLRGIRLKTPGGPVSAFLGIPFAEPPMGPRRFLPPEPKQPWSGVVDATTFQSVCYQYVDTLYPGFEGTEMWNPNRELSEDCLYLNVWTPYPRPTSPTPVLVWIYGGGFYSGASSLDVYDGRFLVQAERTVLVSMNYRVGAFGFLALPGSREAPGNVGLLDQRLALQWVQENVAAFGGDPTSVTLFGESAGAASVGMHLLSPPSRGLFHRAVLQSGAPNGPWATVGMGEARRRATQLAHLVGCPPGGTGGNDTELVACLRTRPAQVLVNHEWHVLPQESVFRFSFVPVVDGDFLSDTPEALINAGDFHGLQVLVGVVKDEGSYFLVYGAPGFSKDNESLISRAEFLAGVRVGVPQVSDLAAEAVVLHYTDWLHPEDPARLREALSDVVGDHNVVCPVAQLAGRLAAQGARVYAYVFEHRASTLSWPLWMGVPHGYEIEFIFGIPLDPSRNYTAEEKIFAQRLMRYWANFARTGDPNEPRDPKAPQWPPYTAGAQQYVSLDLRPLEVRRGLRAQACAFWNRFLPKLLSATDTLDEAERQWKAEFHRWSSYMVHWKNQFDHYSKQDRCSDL
# ASSAY_SUMMARY: Inhibition of human AChE by Ellman's method
MEASUREMENT_LABEL: pIC50
The value called pIC50 is obtained by taking minus log10 of the concentration in mol/L.

Please look up its pIC50: c1cc2[nH]c3nc(NCCCCCCN4CCCC4)nnc3c2cc1N1CCCCC1
6.49

====

# TARGET_OR_SYSTEM: UniProt O42275
# Sequence (O42275 whole entry): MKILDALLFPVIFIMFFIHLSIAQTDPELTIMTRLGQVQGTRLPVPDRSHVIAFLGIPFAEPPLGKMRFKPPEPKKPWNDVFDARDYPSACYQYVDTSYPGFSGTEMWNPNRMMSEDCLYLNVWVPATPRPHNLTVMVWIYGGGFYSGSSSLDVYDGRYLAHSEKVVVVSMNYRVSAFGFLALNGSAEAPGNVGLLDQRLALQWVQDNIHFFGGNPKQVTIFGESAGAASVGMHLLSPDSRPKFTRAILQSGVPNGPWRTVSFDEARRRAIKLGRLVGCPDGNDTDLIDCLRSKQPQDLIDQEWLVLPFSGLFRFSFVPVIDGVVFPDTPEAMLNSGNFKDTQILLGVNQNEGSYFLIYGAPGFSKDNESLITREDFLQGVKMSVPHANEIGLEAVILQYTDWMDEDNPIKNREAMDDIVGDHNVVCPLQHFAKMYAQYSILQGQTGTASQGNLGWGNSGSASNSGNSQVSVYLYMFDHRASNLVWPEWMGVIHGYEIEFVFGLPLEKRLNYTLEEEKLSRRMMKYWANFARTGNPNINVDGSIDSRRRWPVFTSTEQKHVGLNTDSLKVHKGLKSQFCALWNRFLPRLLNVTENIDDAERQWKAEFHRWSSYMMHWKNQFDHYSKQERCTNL
# ASSAY_SUMMARY: Inhibition of electric eel AchE using acetylthiocholine as substrate by Ellman's method
MEASUREMENT_LABEL: IC50 (µM)
Report only the number, with the unit µM understood.

Please look up its IC50: CCc1cc(-c2nnc(Nc3ccccc3Cl)s2)c(O)cc1O
0.031
